biological target: OGA (Homo sapiens, UniProt O60502); construct: HEK293 cells inducible for P301L mutant human Tau (isoform 2N4R) were established at Janssen; endogenous in cells; host or cells: HEK293 cells inducible for P301L mutant human Tau (2N4R); experiment: OGA cellular assay (ICC detection of O-GlcNAcylated proteins in HEK293 cells inducible for P301L mutant human Tau); type: cell-based; details: HEK293, HEK293 cells inducible for P301L mutant human Tau, maximum = Thiamet G 200 uM
Sequence (O60502 whole entry, canonical isoform): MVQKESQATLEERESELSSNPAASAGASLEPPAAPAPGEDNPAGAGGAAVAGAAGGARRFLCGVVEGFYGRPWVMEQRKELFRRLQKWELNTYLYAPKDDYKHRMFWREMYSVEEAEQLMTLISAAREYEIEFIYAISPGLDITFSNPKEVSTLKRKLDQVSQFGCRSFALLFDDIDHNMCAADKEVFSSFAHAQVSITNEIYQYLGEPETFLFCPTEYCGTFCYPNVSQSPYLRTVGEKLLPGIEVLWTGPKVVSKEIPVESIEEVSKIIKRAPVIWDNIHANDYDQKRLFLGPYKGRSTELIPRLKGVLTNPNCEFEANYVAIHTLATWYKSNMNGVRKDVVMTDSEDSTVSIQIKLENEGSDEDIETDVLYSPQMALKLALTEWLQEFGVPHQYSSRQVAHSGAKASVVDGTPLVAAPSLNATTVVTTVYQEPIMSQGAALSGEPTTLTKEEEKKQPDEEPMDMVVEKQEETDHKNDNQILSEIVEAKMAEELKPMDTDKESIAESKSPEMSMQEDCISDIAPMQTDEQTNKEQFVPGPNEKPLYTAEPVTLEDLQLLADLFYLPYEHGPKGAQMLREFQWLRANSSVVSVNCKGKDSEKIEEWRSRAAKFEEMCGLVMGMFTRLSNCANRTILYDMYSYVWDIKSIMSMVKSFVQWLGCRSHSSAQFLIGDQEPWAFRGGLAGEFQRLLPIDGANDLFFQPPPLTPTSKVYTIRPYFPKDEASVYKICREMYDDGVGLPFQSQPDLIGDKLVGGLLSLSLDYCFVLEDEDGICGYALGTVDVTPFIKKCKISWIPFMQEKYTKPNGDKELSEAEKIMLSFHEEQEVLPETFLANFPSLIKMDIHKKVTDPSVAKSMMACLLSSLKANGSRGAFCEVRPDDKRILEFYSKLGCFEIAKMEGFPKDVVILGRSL
recorded_metric: Emax (%)
Respond with the bare value in %.

Known results for compounds:
compound="Cc1cc(OC[C@H]2CCCN(C(C)c3ccc4sc(C)nc4n3)C2)nc(C)n1 (mixture of isomers) [Compound 49ab]" recorded_metric=Emax measurement=68
compound="Cc1cc(CO[C@H]2CCCN(C(C)c3cc4nc(C)sc4cc3F)C2)cc(C)n1 (mixture of isomers)" recorded_metric=Emax measurement=66
compound="Cc1cc(OC[C@H]2CCCN(C(C)c3cc4nc(C)sc4cc3F)C2)cc(C)n1 (stereo partly drawn)" recorded_metric=Emax measurement=60
compound="Cc1cc(C[C@H]2CCCN(C(C)c3ccc4cn(C)nc4n3)C2)cc(C)n1 (mixture of isomers) [Compound 12ab]" recorded_metric=Emax measurement=71
compound="Cc1cc(C[C@H]2CCN(C(C)c3cnc4[nH]c(C)nc4c3)C2)cc(C)n1 (stereo partly drawn)" recorded_metric=Emax measurement=32

**Query** Item Cc1cc(C[C@@H]2CCN(C(C)c3ccc4sc(C)nc4n3)C2)nc(C)n1 (single isomer, unassigned) has what recorded Emax?
**Result** 18

**Query** Item COc1cc(OC[C@H]2CCCN(C(C)c3ccc4sc(C)nc4n3)C2)cc(C)n1 (mixture of isomers) has what recorded Emax?
**Result** 67
